Record form. Attribute: Ki. Fill in for each entry.
Target: human 5HT7 receptors (Homo sapiens)
Construct: expressed in transfected cells; host or cells: Chinese hamster ovary cells (membranes)
Sequence (P34969 whole entry): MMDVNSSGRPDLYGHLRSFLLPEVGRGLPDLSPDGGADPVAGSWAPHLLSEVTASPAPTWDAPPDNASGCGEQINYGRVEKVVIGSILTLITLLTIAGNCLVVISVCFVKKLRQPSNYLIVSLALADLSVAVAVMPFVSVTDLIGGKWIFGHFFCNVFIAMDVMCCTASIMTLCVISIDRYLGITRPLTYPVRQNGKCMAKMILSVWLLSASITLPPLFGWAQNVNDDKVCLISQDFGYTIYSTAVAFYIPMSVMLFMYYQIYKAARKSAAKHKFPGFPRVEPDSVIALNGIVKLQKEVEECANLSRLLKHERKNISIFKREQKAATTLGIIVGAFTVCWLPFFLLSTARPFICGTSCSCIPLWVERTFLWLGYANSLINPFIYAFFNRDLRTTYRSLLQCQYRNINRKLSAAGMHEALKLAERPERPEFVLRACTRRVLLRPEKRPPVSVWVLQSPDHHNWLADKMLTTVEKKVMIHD
Assay: h5-HT7 receptor radioligand binding ([3H]5-CT)
Conditions: pKi reported on a scale of 1 through 5; read-out: 5HT7 (pKi) (converted)

Compound: CCCN(CCO)C(=O)C[C@H]1CN(C2=Nc3cc(Cl)ccc3Oc3ccccc32)CCN1
Ki: 0.631 to 1.55 µM

Compound: O=C(C[C@H]1CN(C2=Nc3cc(Cl)ccc3Oc3ccccc32)CCN1)NCCOCCO
Ki: 0.631 to 1.55 µM

Compound: O=C(C[C@H]1CN(C2=Nc3cc(Cl)ccc3Oc3ccccc32)CCN1)NCC(F)F
Ki: 0.631 to 1.55 µM

Compound: CN1CCN(C2=Nc3cc(Cl)ccc3Oc3ccccc32)C[C@@H]1CC(=O)OC1CCCC1
Ki: > 10 µM

Compound: COC(C)(C)CCOC(=O)C[C@H]1CN(C2=Nc3cc(Cl)ccc3Oc3ccccc32)CCN1
Ki: 1.58 to 3.89 µM

Compound: COCCCNC(=O)C[C@H]1CN(C2=Nc3cc(Cl)ccc3Oc3ccccc32)CCN1
Ki: 0.631 to 1.55 µM

Compound: CN1CCN(C2=Nc3cc(Cl)ccc3Oc3ccccc32)C[C@@H]1CC(=O)OC1CCOCC1
Ki: > 10 µM

Compound: O=C(C[C@H]1CN(C2=Nc3cc(Cl)ccc3Oc3ccccc32)CCN1)N1CCC[C@H]1C(F)(F)F
Ki: 1.58 to 3.89 µM

# return Ki for each item in the list
1. COC(=O)C[C@H]1CN(C2=Nc3cc(Cl)ccc3Oc3ccccc32)CCN1C
2. O=C(C[C@H]1CN(C2=Nc3cc(Cl)ccc3Oc3ccccc32)CCN1)NCC(O)C(F)(F)F (stereo partly drawn)
3. O=C(C[C@H]1CN(C2=Nc3cc(Cl)ccc3Oc3ccccc32)CCN1)OC1CCCC1
4. C[C@H](O)C[C@H](C)OC(=O)C[C@H]1CN(C2=Nc3cc(Cl)ccc3Oc3ccccc32)CCN1
5. C[C@H](CC(C)(C)O)OC(=O)C[C@H]1CN(C2=Nc3cc(Cl)ccc3Oc3ccccc32)CCN1
6. O=C(C[C@H]1CN(C2=Nc3cc(Cl)ccc3Oc3ccccc32)CCN1)NCCCO
7. CC(C)(CO)NC(=O)C[C@H]1CN(C2=Nc3cc(Cl)ccc3Oc3ccccc32)CCN1

a:
3.98 to 9.77 µM
0.631 to 1.55 µM
1.58 to 3.89 µM
0.631 to 1.55 µM
0.631 to 1.55 µM
< 0.617 µM
0.631 to 1.55 µM
